# ASSAY NOTES: Aqueous Solubility Study
# Format: physicochemical
# TEST PARAMETERS: aqueous buffer, thermodynamic from solid; water, pH adjusted with 1.0N HCl, stirred 96 hours at room temperature, filtered, HPLC; filtrate pH per compound (23: >3.0; X: 4.41; Y: 3.01; Z: 4.35)
READOUT KIND: solubility at 96 h

Input "CCNC(=O)Nc1nc2cc(-c3cnc(C(C)(C)OP(=O)(O)OCCN4CCOCC4)nc3)c(F)c([C@H]3CCCO3)c2[nH]1" , output reported solubility at 96 h.
> 41 mg/mL

Write down solubility at 96 h measured for item CCCCCCCCCCCCCCCCOP(=O)(O)OC(C)(C)c1ncc(-c2cc3nc(NC(=O)NCC)[nH]c3c([C@H]3CCCO3)c2F)cn1 [Compound Y, phosphate]
< 0.001 mg/mL

Please supply the value of reported solubility at 96 h for the item "CCNC(=O)Nc1nc2cc(-c3cnc(C(C)(C)O)nc3)c(F)c([C@H]3CCCO3)c2[nH]1"
< 0.001 mg/mL

Respond only with solubility at 96 h recorded for CCNC(=O)Nc1nc2cc(-c3cnc(C(C)(C)OP(=O)(O)OCCOCCOC)nc3)c(F)c([C@H]3CCCO3)c2[nH]1 [Compound X, phosphate]
12.7 mg/mL

====

# MEASURED TARGET: S. aureus TopoIV enzyme (Staphylococcus aureus)
# Sequence (P0C1S7 whole entry): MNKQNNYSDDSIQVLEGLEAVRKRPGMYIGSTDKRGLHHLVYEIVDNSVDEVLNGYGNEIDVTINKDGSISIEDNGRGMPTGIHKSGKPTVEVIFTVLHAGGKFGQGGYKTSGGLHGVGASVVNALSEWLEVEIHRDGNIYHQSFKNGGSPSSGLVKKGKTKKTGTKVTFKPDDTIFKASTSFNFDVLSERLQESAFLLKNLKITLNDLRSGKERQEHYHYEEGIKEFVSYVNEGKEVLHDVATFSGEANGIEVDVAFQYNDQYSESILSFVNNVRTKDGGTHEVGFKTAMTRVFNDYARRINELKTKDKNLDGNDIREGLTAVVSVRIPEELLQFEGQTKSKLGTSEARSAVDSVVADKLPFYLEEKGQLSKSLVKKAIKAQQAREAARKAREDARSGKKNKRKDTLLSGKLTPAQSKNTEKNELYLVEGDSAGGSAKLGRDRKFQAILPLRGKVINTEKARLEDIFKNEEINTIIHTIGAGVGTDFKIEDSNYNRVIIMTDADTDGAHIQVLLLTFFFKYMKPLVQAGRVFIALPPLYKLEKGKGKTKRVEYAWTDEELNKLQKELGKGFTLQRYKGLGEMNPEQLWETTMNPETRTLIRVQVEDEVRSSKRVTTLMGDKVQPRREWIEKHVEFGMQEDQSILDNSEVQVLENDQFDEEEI
# Sequence (P0C1U9 whole entry partner): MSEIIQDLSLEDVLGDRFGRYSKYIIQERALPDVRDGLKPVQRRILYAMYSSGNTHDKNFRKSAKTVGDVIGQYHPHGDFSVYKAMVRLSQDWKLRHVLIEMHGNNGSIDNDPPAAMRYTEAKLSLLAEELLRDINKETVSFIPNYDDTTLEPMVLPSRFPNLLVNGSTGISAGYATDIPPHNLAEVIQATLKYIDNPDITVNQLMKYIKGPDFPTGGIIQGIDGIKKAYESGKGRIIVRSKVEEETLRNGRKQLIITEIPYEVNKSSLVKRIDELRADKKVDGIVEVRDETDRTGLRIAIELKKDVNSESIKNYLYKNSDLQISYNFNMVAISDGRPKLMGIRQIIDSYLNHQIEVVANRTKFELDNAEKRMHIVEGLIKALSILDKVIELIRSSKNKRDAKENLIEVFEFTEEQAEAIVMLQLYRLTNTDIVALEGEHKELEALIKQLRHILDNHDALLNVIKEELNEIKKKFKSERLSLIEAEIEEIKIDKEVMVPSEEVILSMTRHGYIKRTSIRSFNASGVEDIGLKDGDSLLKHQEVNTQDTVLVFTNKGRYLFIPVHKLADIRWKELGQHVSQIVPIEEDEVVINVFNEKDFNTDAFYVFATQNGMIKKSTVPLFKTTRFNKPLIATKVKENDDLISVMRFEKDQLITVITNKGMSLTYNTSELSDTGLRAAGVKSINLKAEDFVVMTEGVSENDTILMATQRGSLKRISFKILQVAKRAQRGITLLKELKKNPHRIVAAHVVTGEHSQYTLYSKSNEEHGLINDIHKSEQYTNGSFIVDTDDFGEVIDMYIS
# ASSAY NOTES: DNA Topo IV ATPase Assay
# Format: biochemical
READOUT KIND: Ki (nM)
Unit nM implied. Number only.

Lab note: record Ki of "CCNC(=O)Nc1nc2cc(-c3cnc(C(C)(C)O)nc3)c(F)c([C@H]3CCCO3)c2[nH]1" tested on S. aureus TopoIV enzyme (Staphylococcus aureus).
9

====

Provide the recorded Ki for the entries that follow.

Find Ki for "CCNC(=O)Nc1nc2cc(-c3cnc(C(C)(C)OP(=O)(O)OCCN4CCOCC4)nc3)c(F)c([C@H]3CCCO3)c2[nH]1" on S. aureus DNA gyrase (Staphylococcus aureus) and write it down.
Sequence (P0A0K8 whole entry): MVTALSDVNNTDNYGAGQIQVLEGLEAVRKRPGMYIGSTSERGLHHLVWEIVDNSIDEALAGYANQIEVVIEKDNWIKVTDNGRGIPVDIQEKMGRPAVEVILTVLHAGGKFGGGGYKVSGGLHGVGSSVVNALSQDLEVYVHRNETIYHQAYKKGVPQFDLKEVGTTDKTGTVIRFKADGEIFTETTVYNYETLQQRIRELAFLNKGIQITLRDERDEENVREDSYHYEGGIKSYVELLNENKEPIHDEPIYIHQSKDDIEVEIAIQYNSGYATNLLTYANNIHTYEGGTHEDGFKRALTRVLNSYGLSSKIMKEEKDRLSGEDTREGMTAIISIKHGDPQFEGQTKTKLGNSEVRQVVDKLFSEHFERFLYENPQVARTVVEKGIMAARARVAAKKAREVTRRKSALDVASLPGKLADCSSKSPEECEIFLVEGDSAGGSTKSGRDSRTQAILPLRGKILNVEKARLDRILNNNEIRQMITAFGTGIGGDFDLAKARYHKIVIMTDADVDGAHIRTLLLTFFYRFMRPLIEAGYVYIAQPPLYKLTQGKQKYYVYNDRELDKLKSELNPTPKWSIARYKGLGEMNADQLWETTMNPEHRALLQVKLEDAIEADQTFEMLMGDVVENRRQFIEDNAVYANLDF
Sequence (P20831 whole entry partner): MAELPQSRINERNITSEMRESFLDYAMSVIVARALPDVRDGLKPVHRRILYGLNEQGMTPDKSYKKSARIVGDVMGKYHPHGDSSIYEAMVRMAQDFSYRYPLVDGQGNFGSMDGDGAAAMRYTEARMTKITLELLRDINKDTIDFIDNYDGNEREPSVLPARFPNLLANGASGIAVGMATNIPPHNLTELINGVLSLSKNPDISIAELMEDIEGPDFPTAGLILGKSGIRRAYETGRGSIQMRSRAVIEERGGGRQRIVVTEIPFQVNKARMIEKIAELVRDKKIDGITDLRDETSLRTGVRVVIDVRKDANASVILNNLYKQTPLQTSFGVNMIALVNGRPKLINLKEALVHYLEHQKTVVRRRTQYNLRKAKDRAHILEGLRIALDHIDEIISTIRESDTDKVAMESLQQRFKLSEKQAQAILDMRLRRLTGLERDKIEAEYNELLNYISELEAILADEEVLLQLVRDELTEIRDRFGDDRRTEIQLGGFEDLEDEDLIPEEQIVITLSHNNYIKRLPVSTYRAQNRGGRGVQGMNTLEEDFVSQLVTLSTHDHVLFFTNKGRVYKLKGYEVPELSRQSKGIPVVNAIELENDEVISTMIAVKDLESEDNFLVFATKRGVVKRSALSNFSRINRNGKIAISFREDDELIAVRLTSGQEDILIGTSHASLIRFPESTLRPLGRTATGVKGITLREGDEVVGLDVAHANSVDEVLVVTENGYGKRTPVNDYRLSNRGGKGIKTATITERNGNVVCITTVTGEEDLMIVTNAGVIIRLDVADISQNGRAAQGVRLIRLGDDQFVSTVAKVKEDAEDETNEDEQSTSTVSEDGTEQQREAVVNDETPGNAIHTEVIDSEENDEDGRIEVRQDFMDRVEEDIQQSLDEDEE
< 9 nM

GET Ki | system: S. aureus DNA gyrase (Staphylococcus aureus) | item: CCNC(=O)Nc1nc2cc(-c3cnc(C(C)(C)OP(=O)(O)OCCOCCOC)nc3)c(F)c([C@H]3CCCO3)c2[nH]1 [Compound X, phosphate]
< 9 nM

Would you please give the reported Ki of CCCCCCCCCCCCCCCCOP(=O)(O)OC(C)(C)c1ncc(-c2cc3nc(NC(=O)NCC)[nH]c3c([C@H]3CCCO3)c2F)cn1 [Compound Y, phosphate] with S. aureus DNA gyrase (Staphylococcus aureus)?
13 nM
